- Tested on: Morganella morganii
- protocolDescription: In vitro antibacterial activity against Morganella morganii strain 15153
- Assay type: functional
readoutName: MIC

compound	measured
COC(=O)/C=C1\SC2C(NC(=O)C(O)c3ccccc3)C(=O)N2C(C(=O)O)=C1C (stereo not drawn)	> 125 µg/mL
COC(=O)/C=C1\SC2C(NC(=O)Cc3cccs3)C(=O)N2C(C(=O)O)=C1COC(C)=O (stereo not drawn)	> 125 µg/mL
COC(=O)/C=C1\SC2C(NC(=O)C(N)c3ccccc3)C(=O)N2C(C(=O)O)=C1C.O=C(O)C(F)(F)F (stereo not drawn)	> 125 µg/mL
CO/N=C(/C(=O)NC1C(=O)N2C(C(=O)O)=C(C)/C(=C/C(=O)OC)SC12)c1ccco1 (stereo not drawn)	63 µg/mL
CO/N=C(/C(=O)NC1C(=O)N2C(C(=O)O)=C(C)/C(=C/C(=O)OC)SC12)c1csc(N)n1.O=C(O)C(F)(F)F (stereo not drawn)	> 125 µg/mL
COC(=O)/C=C1\SC2C(NC(=O)Cc3cccs3)C(=O)N2C(C(=O)O)=C1C (stereo not drawn)	125 µg/mL
CC(=O)OCC1=C(C(=O)O)N2C(=O)[C@@H](NC(=O)Cc3cccs3)[C@H]2SC1 [CEPHALOTHIN]	> 125 µg/mL

Now, please, on to the next compound.
Consider the compound shown here: COC(=O)/C=C1/SC2C(NC(=O)Cc3cccs3)C(=O)N2C(C(=O)O)=C1C (stereo not drawn) What is its recorded MIC?
16 µg/mL
